System: P. multocida
Measurement Notes: In-vitro MIC model, P. multocida
Assay type: cell-based
Condition Details: P. multocida ATCC 43137
Metric Name: MIC

For CCCNC[C@]1(O)[C@H](C)O[C@@H](O[C@H]2[C@H](C)[C@@H](O[C@@H]3O[C@H](C)C[C@H]4[C@H]3OC(=Nc3ccc(OC)cc3)N4C)[C@](C)(O)C[C@@H](C)CN[C@H](C)[C@@H](O)[C@](C)(O)[C@@H](CC)OC(=O)[C@@H]2C)C[C@@]1(C)OC (mixture of isomers) , write its MIC.
>64 µg/mL

For CC[C@H]1OC(=O)[C@H](C)[C@@H](O[C@H]2C[C@@](C)(OC)[C@](O)(CNCCOC)[C@H](C)O2)[C@H](C)[C@@H](O[C@@H]2O[C@H](C)C[C@H]3[C@H]2OC(=Nc2ccc(OC)cc2)N3C)[C@](C)(O)C[C@@H](C)CN[C@H](C)[C@@H](O)[C@]1(C)O (mixture of isomers) , write its MIC.
>64 µg/mL

For CCCNC[C@]1(O)[C@H](C)O[C@@H](O[C@H]2[C@H](C)[C@@H](O[C@@H]3O[C@H](C)C[C@H]4[C@H]3OC(=Nc3ccc(OC)nc3)N4C)[C@](C)(O)C[C@@H](C)CN[C@H](C)[C@@H](O)[C@](C)(O)[C@@H](CC)OC(=O)[C@@H]2C)C[C@@]1(C)OC (mixture of isomers) , write its MIC.
>64 µg/mL
